TARGET_DESC: MCH receptor (Homo sapiens)
METHOD_SUMMARY: MCH receptor [125J]-ligand binding filtration assay
SETTINGS: 10 μM test compound; percent inhibition of ligand binding
Structures can show the parent of a compound that is named as a salt.
REPORTED_ENDPOINT: inhibition at 10 µM (%)
The answer is to be given in %; state only the numeric part.

>  <COMPOUND>
CC1CCCN1C1CCN(c2ccc(NC(=O)C3CC3)cc2)C1 (stereo not shown) [Example 40, trifluoroacetate]

>  <REPORTED_ENDPOINT>
inhibition at 10 µM

>  <REPORTED_VALUE>
-3.4

$$$$
>  <COMPOUND>
Cc1cc(N2CC[C@H](N3CCC[C@@H]3C)C2)ccc1NC(=O)C1CC2CCC1C2 (stereo partly shown) [Example 3]

>  <REPORTED_ENDPOINT>
inhibition at 10 µM

>  <REPORTED_VALUE>
-0.8

$$$$
>  <COMPOUND>
Cc1cc(C(=O)Nc2ccc(N3CCC(N4CCCC4C)C3)cc2C(F)(F)F)n[nH]1 (stereo not shown) [Example 35, trifluoroacetate]

>  <REPORTED_ENDPOINT>
inhibition at 10 µM

>  <REPORTED_VALUE>
23.5

$$$$
>  <COMPOUND>
Cc1cc(NC(=O)CC2CCCC2)ccc1N1CCC(N2CCCC2C)C1 (stereo not shown) [Example 38, trifluoroacetate]

>  <REPORTED_ENDPOINT>
inhibition at 10 µM

>  <REPORTED_VALUE>
3.7

$$$$
>  <COMPOUND>
Cc1cc(NC(=O)c2c(C)noc2C)ccc1N1CCC(N2CCCC2C)C1 (stereo not shown) [Example 7]

>  <REPORTED_ENDPOINT>
inhibition at 10 µM

>  <REPORTED_VALUE>
5

$$$$

Query :: Any idea what its inhibition at 10 µM is? The compound is Cc1cc(C(=O)Nc2ccc(N3CC[C@H](N4CCC[C@@H]4C)C3)c(C)c2)n[nH]1 (stereo in doubt) [Example 22, trifluoroacetate]
Result :: 5.6

Query :: inhibition at 10 µM lookup needed for Cc1cc(NC(=O)C2C(C)(C)C2(C)C)ccc1N1CCC(N2CCCC2C)C1 (stereo not shown) [Example 27, trifluoroacetate] , thanks.
Result :: 36

###

TARGET_DESC: MCH receptor (Homo sapiens)
METHOD_SUMMARY: MCH receptor [125J]-ligand binding filtration assay
SETTINGS: 10 μM test compound; percent inhibition of ligand binding
Counter-ions that a name gives are not always drawn.
Reported inhibition at 10 µM values are given for each entry in this list.
Quick note: unit goes after the number.

// solved cases for inhibition at 10 µM follow
>  <COMPOUND>
Cc1cc(C(=O)Nc2ccc(N3CCC(N4CCCC4C)C3)cc2C)n[nH]1 (centres unmarked) [Example 20, trifluoroacetate]

>  <REPORTED_ENDPOINT>
inhibition at 10 µM

>  <REPORTED_VALUE>
24.3%

$$$$
>  <COMPOUND>
Cc1cc(N2CC[C@H](N3CCC[C@@H]3C)C2)ccc1NC(=O)c1ccco1 [Example 19, trifluoroacetate]

>  <REPORTED_ENDPOINT>
inhibition at 10 µM

>  <REPORTED_VALUE>
6%

$$$$
>  <COMPOUND>
Cc1cc(C(=O)Nc2ccc(N3CC[C@H](N4CCC[C@@H]4C)C3)cc2C)n[nH]1

>  <REPORTED_ENDPOINT>
inhibition at 10 µM

>  <REPORTED_VALUE>
28.3%

$$$$

Query :: Item under review: Cc1cc(N2CCC(N3CCCC3C)C2)ccc1NC(=O)CC1CCCC1 (centres unmarked) . Reported inhibition at 10 µM?
Result :: 1.4%

Query :: Can you look up the measured inhibition at 10 µM of Cc1cc(N2CCC(N3CCCC3C)C2)ccc1NC(=O)c1c(C)noc1C (centres unmarked) [Example 18, trifluoroacetate] for me?
Result :: -2%

Query :: Find the recorded inhibition at 10 µM belonging to Cc1cc(N2CCC(N3CCCC3C)C2)ccc1NC(=O)C1CCOCC1 (centres unmarked) [Example 24, trifluoroacetate] and report it.
Result :: 8.6%

Query :: Fill blank: measured inhibition at 10 µM of the compound CC1CCCN1C1CCN(c2ccc(NC(=O)C3C[C@@H]4CC[C@H]3C4)cc2)C1 (some centres unmarked) [Example 29, trifluoroacetate] is ____.
Result :: 11.4%

Query :: # get_value(readout='inhibition at 10 µM', item= `Cc1cc(N2CC[C@H](N3CCC[C@@H]3C)C2)ccc1NC(=O)C1CCOCC1` )
Result :: -1.6%

###

Known inhibition at 10 µM of a selection of molecules
TARGET_DESC: MCH receptor (Homo sapiens, UniProt Q99705)
Sequence (Q99705 whole entry): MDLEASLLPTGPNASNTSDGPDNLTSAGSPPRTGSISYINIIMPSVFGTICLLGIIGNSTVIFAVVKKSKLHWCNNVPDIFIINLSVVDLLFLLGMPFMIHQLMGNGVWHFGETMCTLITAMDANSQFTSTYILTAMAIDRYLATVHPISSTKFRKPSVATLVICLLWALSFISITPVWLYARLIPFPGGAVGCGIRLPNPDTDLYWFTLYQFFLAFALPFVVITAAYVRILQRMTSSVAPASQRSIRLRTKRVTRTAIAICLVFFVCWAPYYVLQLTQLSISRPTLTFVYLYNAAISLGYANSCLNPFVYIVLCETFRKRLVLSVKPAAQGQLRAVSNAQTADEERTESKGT
METHOD_SUMMARY: MCH receptor [125J]-ligand binding filtration assay
SETTINGS: 10 μM test compound; percent inhibition of ligand binding
Counter-ions that a name gives are not always drawn.
Return type: number; implicit unit %.

>  <MOLECULE>
Cc1cc(NC(=O)c2cn[nH]c2)ccc1N1CCC(N2CCCC2C)C1 (centres unmarked) [Example 34, trifluoroacetate]

>  <inhibition at 10 µM (%)>
16.8

$$$$
>  <MOLECULE>
Cc1cc(N2CC[C@H](N3CCC[C@@H]3C)C2)ccc1NC(=O)C1CCCCC1

>  <inhibition at 10 µM (%)>
-2.1

$$$$
>  <MOLECULE>
Cc1cc(N2CC[C@H](N3CCC[C@@H]3C)C2)ccc1NC(=O)C1CCCC1 [Example 39, trifluoroacetate]

>  <inhibition at 10 µM (%)>
-7.2

$$$$
>  <MOLECULE>
Cc1cc(N2CC[C@H](N3CCC[C@@H]3C)C2)ccc1NC(=O)C1C(C)(C)C1(C)C [Example 16, trifluoroacetate]

>  <inhibition at 10 µM (%)>
5.8

$$$$
>  <MOLECULE>
CC1CCCN1C1CCN(c2ccc(NC(=O)CC3CCCC3)cc2)C1 (centres unmarked) [Example 36, trifluoroacetate]

>  <inhibition at 10 µM (%)>
0.7

$$$$

Query :: Write down the reported inhibition at 10 µM of Cc1cc(NC(=O)C2CC2)ccc1N1CCC(N2CCCC2C)C1 (centres unmarked) [Example 41, trifluoroacetate] , test system: MCH receptor (Homo sapiens, UniProt Q99705).
Result :: -1.3

Query :: Recorded inhibition at 10 µM for Cc1cc(N2CCC(N3CCCC3C)C2)ccc1NC(=O)C1C(C)(C)C1(C)C (centres unmarked) [Example 17, trifluoroacetate] with MCH receptor (Homo sapiens, UniProt Q99705), please?
Result :: 11.5

Query :: Short answer please: inhibition at 10 µM, MCH receptor (Homo sapiens, UniProt Q99705), entry CC1CCCN1C1CCN(c2ccc(NC(=O)C3CC3)c(C(F)(F)F)c2)C1 (centres unmarked) [Example 30, trifluoroacetate]
Result :: 1.2

Query :: Value wanted: inhibition at 10 µM (MCH receptor (Homo sapiens, UniProt Q99705)) of entry `Cc1cc(C(=O)Nc2ccc(N3CC[C@H](N4CCC[C@@H]4C)C3)cc2C)on1`
Result :: 3.1

Query :: Return inhibition at 10 µM measured with MCH receptor (Homo sapiens, UniProt Q99705) given this molecule: `Cc1cc(N2CC[C@H](N3CCC[C@@H]3C)C2)ccc1NC(=O)c1c(C)noc1C`
Result :: 0.7

Query :: API: value(readout=inhibition at 10 µM, system=MCH receptor (Homo sapiens, UniProt Q99705)) for record Cc1cc(N2CCC(N3CCCC3C)C2)ccc1NC(=O)c1cn[nH]c1 (centres unmarked) [Example 33, trifluoroacetate]
Result :: 9.7

###

TARGET_DESC: rhesus (Macaca Mulatta) H3 receptor (Macaca mulatta, UniProt Q865E1)
Sequence (Q865E1 1-445): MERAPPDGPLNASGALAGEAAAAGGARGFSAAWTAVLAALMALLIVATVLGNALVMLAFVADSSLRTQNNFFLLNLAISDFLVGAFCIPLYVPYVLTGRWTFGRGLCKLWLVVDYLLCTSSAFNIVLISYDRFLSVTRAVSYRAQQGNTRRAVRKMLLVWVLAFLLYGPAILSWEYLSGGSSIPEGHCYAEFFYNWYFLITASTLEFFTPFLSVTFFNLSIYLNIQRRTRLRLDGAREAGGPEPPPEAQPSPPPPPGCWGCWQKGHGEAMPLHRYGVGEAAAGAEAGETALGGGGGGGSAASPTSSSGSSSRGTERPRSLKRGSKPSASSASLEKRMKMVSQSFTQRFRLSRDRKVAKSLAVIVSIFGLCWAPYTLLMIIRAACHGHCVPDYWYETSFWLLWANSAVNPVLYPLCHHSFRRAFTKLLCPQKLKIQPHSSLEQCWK
METHOD_SUMMARY: Rhesus H3 radioligand binding assay ([3H]-Methylhistamine displacement, WGA SPA beads)
Design: species or system rhesus monkey (Macaca Mulatta)
SETTINGS: Table 2; procedure of Example 42
Where a name gives a salt, the structure may show the parent alone.
REPORTED_ENDPOINT: Ki (nM)
Supply the numeric figure in nM, leaving out any unit text.

Example entries begin here.
>  <MOLECULE>
Cc1cc(NC(=O)C2CCOCC2)ccc1N1CCC(N2CCCC2C)C1 (stereo not shown)

>  <Ki [nM]>
17

$$$$
>  <MOLECULE>
Cc1cc(N2CCC(N3CCCC3C)C2)ccc1NC(=O)c1cc(-c2ccncc2)n[nH]1 (stereo not shown) [Example 37, trifluoroacetate]

>  <Ki [nM]>
14.2

$$$$
>  <MOLECULE>
Cc1cc(N2CC[C@H](N3CCC[C@@H]3C)C2)ccc1NC(=O)c1cc(C)n(C)n1 [Example 15, hydrochloride]

>  <Ki [nM]>
10.8

$$$$
>  <MOLECULE>
Cc1cc(N2CCC(N3CCCC3C)C2)ccc1NC(=O)c1ccc(-n2ccccc2=O)o1 (stereo not shown)

>  <Ki [nM]>
33.3

$$$$
>  <MOLECULE>
Cc1cc(N2CCC(N3CCCC3C)C2)ccc1NC(=O)C1CC1 (stereo not shown)

>  <Ki [nM]>
9.6

$$$$

Query :: Item Cc1cc(N2CCC(N3CCCC3C)C2)ccc1NC(=O)CC1CCCC1 (stereo not shown) has what recorded Ki?
Result :: 8.4

Query :: I'd like to know its Ki. The molecule in question is `Cc1cc(N2CC[C@H](N3CCC[C@@H]3C)C2)ccc1NC(=O)C1CCCCC1`
Result :: 0.4

Query :: // lookup Ki for Cc1cc(NC(=O)C2C[C@@H]3CC[C@H]2C3)ccc1N1CCC(N2CCCC2C)C1 (stereo partly shown) [Example 23, trifluoroacetate]
Result :: 130

Query :: Please look up its Ki: Cc1cc(N2CCC(N3CCCC3C)C2)ccc1NC(=O)C1CCOCC1 (stereo not shown) [Example 24, trifluoroacetate]
Result :: 6.8

Query :: Please look up its Ki: CC1CCCN1C1CCN(c2ccc(NC(=O)CC3CCCC3)cc2)C1 (stereo not shown) [Example 36, trifluoroacetate]
Result :: 3.1

Values were extracted from patent US8088808B2.
